# PROTOCOL_DETAILS: NCI Yeast Anticancer Drug Screen. Data for the rad50 strain (AID 155);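 further: 0% = growth of vehicle-only cultures of the same strain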
# MEASUREMENT_PARAMETERS: S. cerevisiae rad50 strain growth inhibition; at 50.0 µM; stronger effect = higher value
This is part of a sample that, as a whole, favours compounds with a hit. Of some 79,000 tested, about 15% had one in any assay. Activity calls are given as the source filed them. No stated cut-off is given here; in the data, active means growth inhibition above about 70%; inactive means the rest.
Quick reference: growth inhibition of the listed items.

Before answering, review these 3 worked examples.
>>> df
                                   molecule       readout_kind       assay_value
0  CC[n+]1ccc(Nc2ccc(NC(=O)c3ccc(Nc4cc[n+](CC)c5ccc([N+](=O)[O-])cc45)cc3)cc2)cc1  growth inhibition      99% (active)
1  C=C1C(=O)OC2CC3(C)CCCC(C)C3=CC12 (stereo not given)  growth inhibition  49.5% (inactive)
2  Cc1cc(C(=C2C=CC(=Nc3ccccc3)C=C2)c2ccc(Nc3ccccc3)cc2)ccc1N  growth inhibition  43.8% (inactive)

[Q] What value of growth inhibition has been recorded for this entry: CN(C)c1ccc(/C=C/c2ccnc3ccccc23)cc1
[A] 78.1% (active)

[Q] What value of growth inhibition has been recorded for this entry: C=CCO/N=C/c1cc(NC(=S)c2ccoc2C)ccc1Cl
[A] 83.9% (active)

[Q] What value of growth inhibition has been recorded for this entry: O=C(/C=C/c1ccccc1)c1ccccc1O
[A] 98.5% (active)

[Q] What value of growth inhibition has been recorded for this entry: O=C(CCl)N1c2ccccc2Sc2c1ccc1ccccc21
[A] 82.7% (active)

[Q] What value of growth inhibition has been recorded for this entry: CCN(CC)CC(O)c1cc(-c2ccc(Cl)cc2)nc2cc(Cl)ccc12 (stereo not given)
[A] 98% (active)

[Q] What value of growth inhibition has been recorded for this entry: c1csc(-c2[nH]nc3c2CCc2ccccc2-3)c1
[A] 98.3% (active)

[Q] What value of growth inhibition has been recorded for this entry: COc1c(/C=C/C=O)cc2c(c1OC)OCO2
[A] -1.75% (inactive)

[Q] What value of growth inhibition has been recorded for this entry: Oc1c(Cl)cc(Cl)cc1C=NCC1CCC(CN=Cc2cc(Cl)cc(Cl)c2O)CC1 (stereo not given)
[A] 87.5% (active)

---

# PROTOCOL_DETAILS: NCI Yeast Anticancer Drug Screen. Data for the rad50 strain (AID 155);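 further: 0% = growth of vehicle-only cultures of the same strain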
# MEASUREMENT_PARAMETERS: S. cerevisiae rad50 strain growth inhibition; at 50.0 µM (retest, dose inferred, filed as 5.0); stronger effect = higher value
Compounds without any hit were thinned out: in the full panel of roughly 79,000, 15% have a hit.
In this scheme, each record receives a class according to its growth inhibition; the ranges are low-valued = under 60%, mid-valued = from 60% up to 90%, high-valued = 90% and over

Recorded results for 5 compounds are shown here.
In [3]: df
Out[3]:
                                   compound        group
0  COC(=O)[C@]1(C)CCC[C@@]2(C)[C@@H]3C[C@@H]4[C@H]5C[C@@]3(CC[C@@H]21)C[C@@]45C  high-valued
1                 O=C1C=CC(=O)N1c1ccc(O)cc1  high-valued
2                 CCCN(CCC)C(=O)c1ccc(C)cc1   low-valued
3  Cc1ccccc1NC(=O)Cc1csc2[n+]1C(=O)/C(=C/c1ccc([N+](=O)[O-])cc1)S2   low-valued
4         CCCCCCN(CCCCCC)CCCNc1nccc2ccccc12   mid-valued

[Q] Sort OC(c1cc(-c2ccc(Cl)cc2)nc2c(Cl)cccc12)C1CCCCN1 (configuration not stated) into one of the categories.
[A] high-valued

[Q] Sort O=C(Cc1ccccc1)C(F)(F)F into one of the categories.
[A] mid-valued

[Q] Sort S=C1SCN(Cc2cccs2)CN1Cc1cccs1 into one of the categories.
[A] high-valued

[Q] Sort CC(O)C(=O)NCCc1ccccc1 (configuration not stated) into one of the categories.
[A] low-valued

[Q] Sort Nc1cc(-c2ccccc2)ccc1O into one of the categories.
[A] mid-valued

---

# PROTOCOL_DETAILS: NCI Yeast Anticancer Drug Screen. Data for the cln2 rad14 strain (AID 165);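 further: 0% = growth equal to vehicle treated cultures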
# MEASUREMENT_PARAMETERS: S. cerevisiae cln2 rad14 strain, at 5.0 µM (retest, dose inferred, filed as 0.5), stronger effect = higher value
The panel holds about 79,000 compounds, 15% with a hit somewhere; the sample as a whole holds those more often.
Quick reference: growth inhibition of the listed items.
Report the value in % with no unit label.

Before answering, review these 3 worked examples.
COMPOUND	growth inhibition / %
Cc1cc(O)c(O)c(C(C)(C)CC(C)(C)C)c1	78
[O-][n+]1cccc2cccc(O)c21	-3
Cc1cc(I)nc2ccccc12	-3

[Q] What value of growth inhibition has been recorded for this entry: COc1cccc(NC(=O)c2c(SC)n[nH]c2N)c1
[A] 30

[Q] What value of growth inhibition has been recorded for this entry: CC(C)N=C(N)/N=C(\N)Nc1ccc2ccc3ccccc3c2c1
[A] 3

[Q] What value of growth inhibition has been recorded for this entry: O=C(/C=C/c1ccccc1)CCC1C(=O)c2ccccc2C1=O
[A] 10

---

# PROTOCOL_DETAILS: NCI Yeast Anticancer Drug Screen. Data for the mec2-1 strain (AID 157)
# MEASUREMENT_PARAMETERS: S. cerevisiae mec2-1 strain, at 50.0 µM (retest, dose inferred, filed as 5.0), stronger effect = higher value
About 79,000 compounds went through this panel and 15% of them were active in at least one assay; those are over-represented in the sample as a whole. *1 amine or outer side, *2 acyl side, *3 side chain or, on linkers, in order; H or OH if unused. Where a SMILES comes first, the peptide text is derived from it. [ ]: non-standard residue; d: D form. The star is where a group is joined. X5 = CCC(=O)CC1CC(C)CC(C(=O)[*:2])N1[*:1]; X4 = CCCCCCCCC(C)C(=O)*; Aib = CC(C)(N)C(=O)O; X6 = CC(CN(C)CCO)N*
Quick reference: growth inhibition of the listed items.
Report the value in % with no unit label.

MOLECULE	UNIT_INFO	growth inhibition
CCCCCCCCC(C)C(=O)N1CCCC1C(=O)N1C(CC(=O)CC)CC(C)CC1C(=O)NC(C)C(=O)NC(C)(C)C(=O)NC(C)(C)C(=O)NC(C(=O)NC(C)C(=O)NC(C)(C)C(=O)NC(C)(C)C(=O)NC(C)CN(C)CCO)C(C)CC (stereo not drawn) (X4-P[X5]A[Aib][Aib]IA[Aib][Aib]-X6; configuration not given here)	%	100
Oc1ccccc1N=Cc1ccccc1	%	35
[O-][n+]1cccc2cccc(O)c21	%	16

Next:
[Q] What value of growth inhibition has been recorded for this entry: COc1ccc(N=NC(C#N)C#N)cc1
[A] 97

---

# PROTOCOL_DETAILS: NCI Yeast Anticancer Drug Screen. Data for the sgs1 mgt1 strain (AID 161);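 further: 0% = growth of cultures given vehicle only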
# MEASUREMENT_PARAMETERS: S. cerevisiae sgs1 mgt1 strain, at 50.0 µM, stronger effect = higher value
Compounds without any hit were thinned out: in the full panel of roughly 79,000, 15% have a hit.
READOUT_KIND: growth inhibition (%)
Report the value in % with no unit label.

Before answering, review these 2 worked examples.
>>> print(df.to_string())
                                   compound  unit_info  assay_value
0  O=[N+]([O-])c1ccc(C2N(Cc3ccc(Cl)cc3)CCN2Cc2ccc(Cl)cc2)cc1          %         85.8
1              CCc1cccc(CC)c1N1C(=O)C=CC1=O          %           94

[Q] What value of growth inhibition has been recorded for this entry: COc1ccc(NC(=O)/C(=C/N2C(=O)/C(=C/c3ccc(OC)c(OC)c3)NC2=S)C(C)=O)cc1
[A] 51.9

[Q] What value of growth inhibition has been recorded for this entry: OC(c1cc2ccc(C(F)(F)F)cc2c2cc(C(F)(F)F)ccc12)C1CCCCN1 (stereo not given)
[A] 88.9

[Q] What value of growth inhibition has been recorded for this entry: O=C(c1ccccc1)C(Br)[N+](=O)[O-] (stereo not given)
[A] 99.7

[Q] What value of growth inhibition has been recorded for this entry: Cc1ccccc1N=C(N)Nc1ccccc1C (tested in a mixture with another compound)
[A] 30.6

[Q] What value of growth inhibition has been recorded for this entry: O=C1C=CC(=O)c2c(O)c(CO)c(CO)c(O)c21
[A] 51

[Q] What value of growth inhibition has been recorded for this entry: NCCCN(CCCN)CCCNCc1c2ccccc2c(CNCCCN(CCCN)CCCN)c2ccccc12
[A] 93.3

[Q] What value of growth inhibition has been recorded for this entry: CCCc1cc(=O)oc2c3c(c4c(c12)OC(C)(C)CC4)OC(C)[C@H](C)[C@@H]3O (stereo not given in full)
[A] 80.2

[Q] What value of growth inhibition has been recorded for this entry: CCOc1ccc(C(CN2CCOCC2)C(C)=O)cc1OC (stereo not given)
[A] 74.7

// data source = PubChem BioAssay (NCI)
